test: small-molecule microarray binders of probe aNog, primary screen, biochemical, biotinylated probe, 635/667 nm fluorescence (AID 1115); details: higher = more signal;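 also: probe is biotinylated aNog protein used at 0.15 µg/mL for 1 h at 4 C; z-score combines 667 nm fluorescence of each spot with its signal to noise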
Assign a class from recorded composite z-score; defined classes: low (below 0.2), mid (0.2 to below 0.7), high (0.7 or more)

Reference set (4 entries):
Qu. Which category does the recorded composite z-score put `COc1ccc([Si](C)(C)[C@H]2[C@H](CCO)O[C@@]3(C(=O)N(Cc4ccc(N5C(=O)c6cccc7cccc5c67)cc4)c4ccccc43)[C@@H]2C)cc1` in?
Ans. mid

Qu. Sort `COc1ccc(C(=O)Nc2cccc(CN3C(=O)[C@@]4(O[C@@H](CCO)[C@H]([Si](C)(C)c5ccc(OC)cc5)[C@H]4C)c4ccccc43)c2)cc1` into one of the categories.
Ans. low

Qu. Into which category would you place `COCCOC(=O)N1C(=O)[C@@]2(c3ccccc31)[C@H](C(=O)Nc1nc3ccccc3s1)[C@H]1C(=O)O[C@H](c3ccccc3)[C@H](c3ccccc3)N1[C@@H]2c1ccc(O)cc1` ?
Ans. low

Qu. Kindly state the category for this compound: `O=C(N1CCCCC1)[C@@]1(Cc2ccccc2)N=C(c2ccc(OCCCO)cc2)O[C@H]1c1ccccc1`
Ans. high

Others:
Qu. Bin? `COCCOC(=O)N1C(=O)[C@@]2(c3cc(C#CC4(O)CCCCCC4)ccc31)[C@H](c1ccc(O)cc1)N1[C@H](c3ccccc3)[C@H](c3ccccc3)OC(=O)[C@H]1[C@@H]2C(N)=O`
Ans. high

Qu. Bin? `O=C(NO)[C@]1(Cc2ccccc2)N=C(c2ccc(OCCCO)cc2)O[C@@H]1c1ccccc1`
Ans. low

Qu. Please indicate the class for `O=C1O[C@H](c2ccccc2)[C@H](c2ccccc2)N2[C@H]1[C@@H](C(=O)Nc1nc3ccccc3s1)[C@]1(C(=O)Nc3ccc(C#CCCO)cc31)[C@H]2c1ccccc1OCCO` based on its composite z-score.
Ans. high

Qu. Which class is correct for the following compound? `Cc1ccc(N2C(=O)c3ccccc3[C@](C)(C(=O)NC3CC3)[C@@H]2c2ccc(CO)cc2)nc1`
Ans. low

Qu. Category lookup for the compound `O=C1c2ccccc2[C@@]2(Cc3ccccc3N(CC(F)(F)F)C2=O)[C@H](c2ccc(CO)cc2)N1Cc1ccccc1C(F)(F)F`
Ans. mid

Qu. Class? Entry: `COCCOC(=O)N1C(=O)[C@@]2(c3cc(C#CC4(O)CCCCCC4)ccc31)[C@H](C(=O)NC[C@H](O)c1ccccc1)[C@H]1C(=O)O[C@H](c3ccccc3)[C@H](c3ccccc3)N1[C@@H]2c1ccccc1OCCO`
Ans. low

Qu. Would you mind sorting `Cc1ccc(S[C@]2(C(=O)NC3CC3)CC(=O)N(Cc3ccccc3C(F)(F)F)[C@@H]2c2ccc(CO)cc2I)cc1` into the appropriate category?
Ans. mid

---

test: PSAC antagonists in infected red cells, primary screen, cell-based, P. falciparum Indochina, OD700, 1 h (AID 1154); details: P. falciparum Indochina infected RBC osmotic lysis, higher = more signal, called active from +8 up or from −8 down
Please go through the items and note down their z-score.
Answers are plain numbers.

Below, each entry is followed by its recorded z-score result.
Qu. Entry `O=C1O[C@H](c2ccccc2)[C@H](c2ccccc2)N2[C@H]1[C@@H](C(=O)Nc1nc3ccccc3s1)[C@]1(C(=O)Nc3ccc(C#CCCO)cc31)[C@H]2c1ccccc1OCCO` has what z-score?
Ans. 2.76

Qu. I am curious: what z-score value has been reported for `COc1ccc([Si](C)(C)[C@@H]2[C@@H](CC(=O)N3CCC[C@H]3CO)O[C@]3(C(=O)N(Cc4ccc(N5CCC5=O)cc4)c4ccccc43)[C@H]2C)cc1` ?
Ans. 7.47

Qu. Field request: z-score | item: `O=C(NC1CC1)[C@@H]1c2ccccc2C(=O)N(Cc2ccccc2C(F)(F)F)[C@H]1c1ccc(CO)cc1`
Ans. 2.17

Qu. Requested field: z-score. Item: `NC(=O)NCC#Cc1ccc2c(c1)[C@]1(C(=O)N2)[C@H](c2ccc(OCCO)cc2)N2[C@H](c3ccccc3)[C@H](c3ccccc3)OC(=O)[C@H]2[C@@H]1C(=O)Nc1nc2ccccc2s1`
Ans. 2.5

Qu. I'd like to know its z-score. The compound in question is C=C1C=C(Br)C2(OCCCO2)[C@H]2OC12 (some centres undefined)
Ans. -0.14

Qu. Requested field: z-score. Item: `[N-]=[N+]=NCc1ccccc1C[C@@]1(C(=O)O)N=C(c2ccc(OCCCO)cc2)O[C@@H]1c1ccccc1`
Ans. 15.1

Qu. Consider the compound `O=C1O[C@@H](c2ccccc2)[C@@H](c2ccccc2)N2[C@@H](c3ccc(OCCO)cc3)[C@]3(C(=O)Nc4ccc(C#CC5(O)CCCCCC5)cc43)[C@@H](C(=O)NC[C@H](O)c3ccccc3)[C@H]12` and give its measured z-score.
Ans. 1.21

Qu. Would you kindly share the measured z-score for `CC(C)N1C(=O)c2ccccc2[C@@H](C(=O)NCc2ccccc2)[C@@H]1c1ccc(CO)cc1` ?
Ans. 2.59

Qu. Dear colleague, I am looking for the recorded z-score of the following compound: `O=C1N(CCS(=O)(=O)c2ccccc2)Cc2ccccc2[C@@H]2OC(c3ccc(OCCCO)cc3)=N[C@]12Cc1ccccc1`
Ans. 27.7

Qu. z-score lookup needed for `CCOC(=O)C[C@H]1[C@H](OC(=O)c2cc3ccccc3oc2=O)[C@@H](NC(=O)c2ccccc2)c2cc(OCCCO)ccc2N1C(=O)Cc1ccc(OC)cc1` , thanks.
Ans. 3.28

Can you give me z-score for all of these, one by one?
1. CC(CO)N1C(=O)[C@@H]2C3C(=O)OCCC/C=C\[C@H]3OC23C=CCN(Cc2ccccc2)C(=O)[C@@H]13 (some centres undefined)
2. CC(C)CCC[C@@H](C)[C@H]1CC[C@@]2(C)C3=C(CC[C@]12C)[C@@]1(C)CC[C@H](OC(=O)CCl)C(C)(C)C1CC3 (some centres undefined)
3. C=C(COC)C(=O)CC[C@H](OC(=O)c1ccccc1-c1ccccc1C(=O)O)c1ccccc1OCCO
4. C[N+](C)(C)CCCCNC(=O)[C@@H]1C[C@@H]2C(=O)NCC(=O)N2[C@@H]1c1cccc(OCCO)c1

Ans.
[0.38, -0.0025, 4.88, 2.68]
